src = ChEMBL document CHEMBL1139414

# MEASURED ON: Protein kinase C alpha type (Mus musculus, UniProt P20444)
Categories are assigned from the measured Ki using these intervals: low bin: < 0.03 µM; mid bin: ≥ 0.03 µM and < 0.1 µM; high bin: ≥ 0.1 µM

{"columns": ["COMPOUND", "MEASURED ON", "GROUP"],
 "data": [
  ["CCC(C(=O)OCC1(CO)C/C(=C\\c2ccc(-c3ccc(C(F)(F)F)cc3)cc2)C(=O)O1)c1ccccc1 (racemic; form 1)", "Protein kinase C alpha type (Mus musculus, UniProt P20444)", "high bin"],
  ["Cc1ccccc1C(=O)OCC1(CO)C/C(=C/c2ccc(N(C)C)cc2)C(=O)O1 (racemic)", "Protein kinase C alpha type (Mus musculus, UniProt P20444)", "high bin"],
  ["CCCCC(/C=C1/CC(CO)(COC(=O)c2ccc(C(F)(F)F)cc2)OC1=O)CC (racemic)", "Protein kinase C alpha type (Mus musculus, UniProt P20444)", "high bin"]
]}

Ask | State the class of the compound shown: O=C1OC(CO)(COC(=O)c2ccc(C(F)(F)F)cc2)C/C1=C/c1ccc([N+](=O)[O-])cc1 (racemic)
Reply | high bin

Ask | State the class of the compound shown: CC(C)(C)CC(=O)OCC1(CO)C/C(=C/c2ccc(Cl)c(F)c2)C(=O)O1 (racemic)
Reply | mid bin

Ask | State the class of the compound shown: Cc1cc(C)c(C(=O)OCC2(CO)C/C(=C/C3CCCCC3)C(=O)O2)c(C)c1 (racemic)
Reply | mid bin

Ask | State the class of the compound shown: CN(C)c1cccc(C(=O)OCC2(CO)C/C(=C\c3cccc([N+](=O)[O-])c3)C(=O)O2)c1 (racemic)
Reply | mid bin

Ask | State the class of the compound shown: CCCC(CCC)C(=O)OCC1(CO)C/C(=C/c2cccc(C(F)(F)F)c2)C(=O)O1 (racemic)
Reply | low bin

Ask | State the class of the compound shown: CC(C)(C)C(=O)OCC1(CO)C/C(=C\c2ccc(Cl)c(F)c2)C(=O)O1 (racemic; form 2)
Reply | low bin

Ask | State the class of the compound shown: CCC(C(=O)OCC1(CO)C/C(=C/c2cc(C(F)(F)F)cc(C(F)(F)F)c2)C(=O)O1)c1ccccc1 (racemic)
Reply | mid bin

Ask | State the class of the compound shown: CCCC(CCC)C(=O)OCC1(CO)C/C(=C\c2ccc(Cl)c(F)c2)C(=O)O1 (racemic; form 2)
Reply | low bin

====

List of Ki values.
# MEASURED ON: UniProt P20444
Response body: numeric value in nM, unit text excluded.

{"columns": ["COMPOUND", "Ki / nM"],
 "data": [
  ["CC(CC(=O)OCC1(CO)C/C(=C/c2cccc(C(F)(F)F)c2)C(=O)O1)CC(C)(C)C (racemic; form 1)", 13.3],
  ["CCCCCC/C=C1/CC(CO)(COC(=O)c2ccc(C)cc2)OC1=O (racemic)", 60.2],
  ["CCCCC(CC)C(=O)OCC1(CO)C/C(=C/c2ccc(C(F)(F)F)cc2)C(=O)O1 (racemic; form 1)", 15.5]
]}

Then there is this compound:
Ask | Value wanted: Ki (UniProt P20444) of entry CCCCC(CC)C(=O)OCC1(CO)C/C(=C/c2ccc(F)cc2)C(=O)O1 (racemic)
Reply | 15.1

====

# MEASURED ON: Protein kinase C alpha type (Mus musculus)
pKi: −log10 of the molar value.
// rule not met strictly below 7 in pKi; rule met otherwise

Solved entries:
{"columns": ["COMPOUND", "GROUP"],
 "data": [
  ["CC(C)(C)C(=O)OCC1(CO)C/C(=C/c2ccc(F)c(Br)c2)C(=O)O1 (racemic)", "rule met"],
  ["Cc1ccc(C(=O)OCC2(CO)C/C(=C/c3ccc([N+](=O)[O-])cc3)C(=O)O2)cc1 (racemic)", "rule not met"],
  ["Cc1ccccc1C(=O)OCC1(CO)C/C(=C/c2ccc([N+](=O)[O-])cc2)C(=O)O1 (racemic)", "rule not met"],
  ["CN(C)c1ccc(/C=C2/CC(CO)(COC(=O)c3ccccc3)OC2=O)cc1 (racemic)", "rule not met"]
]}

In the following, a different compound is considered.
Ask | Check if pKi >= 7 (inclusive). Item: CCCCC(CC)C(=O)OCC1(CO)C/C(=C/c2ccccc2)C(=O)O1 (racemic)
Reply | rule met

====

# MEASURED ON: Protein kinase C alpha type (Mus musculus, UniProt P20444)
pKi: −log10 of the molar value.
// false (0) strictly below 7 in pKi; true (1) otherwise

Solved entries:
{"columns": ["COMPOUND", "GROUP"],
 "data": [
  ["CC(CC(=O)OCC1(CO)C/C(=C/c2ccc(OC(F)(F)F)cc2)C(=O)O1)CC(C)(C)C (racemic)", "true (1)"],
  ["CC(C)(C)C(=O)OCC1(CO)C/C(=C/c2ccc(Cl)c(F)c2)C(=O)O1 (racemic)", "true (1)"],
  ["CCCCC(CC)C(=O)OCC1(CO)C/C(=C/c2ccc(C(F)(F)F)cc2)C(=O)O1 (racemic; form 2)", "true (1)"]
]}

Ask | Check if pKi >= 7 (inclusive). Item: CCCCC(/C=C1/CC(CO)(COC(=O)c2ccc(OC)cc2)OC1=O)CC (racemic)
Reply | false (0)

Ask | Check if pKi >= 7 (inclusive). Item: COc1ccc(C(=O)OCC2(CO)C/C(=C/c3ccccc3)C(=O)O2)cc1 (racemic)
Reply | false (0)

====

Protein kinase C alpha type (Mus musculus, UniProt P20444) data, read-out pKi
By convention, pKi is the negative base-10 log of a molar concentration.

{"columns": ["COMPOUND", "pKi"],
 "data": [
  ["CN(C)c1cccc(C(=O)OCC2(CO)C/C(=C\\c3ccccc3[N+](=O)[O-])C(=O)O2)c1 (racemic)", 6.94]
]}

Ask | Value wanted: pKi (Protein kinase C alpha type (Mus musculus, UniProt P20444)) of entry CN(C)c1ccc(C(=O)OCC2(CO)C/C(=C\c3cccc([N+](=O)[O-])c3)C(=O)O2)cc1 (racemic)
Reply | 7.14

Ask | Value wanted: pKi (Protein kinase C alpha type (Mus musculus, UniProt P20444)) of entry CC(C)c1cc(C(C)C)c(C(=O)OCC2(CO)C/C(=C/c3ccc(N(C)C)cc3)C(=O)O2)c(C(C)C)c1 (racemic)
Reply | 6.18

Ask | Value wanted: pKi (Protein kinase C alpha type (Mus musculus, UniProt P20444)) of entry CC(C)(C)C(=O)OCC1(CO)C/C(=C/c2ccc(-c3ccc(C(F)(F)F)cc3)cc2)C(=O)O1 (racemic)
Reply | 7.57

Ask | Value wanted: pKi (Protein kinase C alpha type (Mus musculus, UniProt P20444)) of entry CCCCC(/C=C1/CC(CO)(COC(=O)c2ccc(N(C)C)cc2)OC1=O)CC (racemic; form 2)
Reply | 6.87

Ask | Value wanted: pKi (Protein kinase C alpha type (Mus musculus, UniProt P20444)) of entry COc1ccc(/C=C2/CC(CO)(COC(=O)c3ccccc3)OC2=O)cc1 (racemic)
Reply | 6.52

Ask | Value wanted: pKi (Protein kinase C alpha type (Mus musculus, UniProt P20444)) of entry CCCCC(CC)C(=O)OCC1(CO)C/C(=C\c2ccc(N(C)C)cc2)C(=O)O1 (racemic; form 2)
Reply | 7.02

Ask | Value wanted: pKi (Protein kinase C alpha type (Mus musculus, UniProt P20444)) of entry CCC(C(=O)OCC1(CO)C/C(=C/c2ccc(Cl)cc2)C(=O)O1)c1ccccc1 (racemic)
Reply | 7.32

Ask | Value wanted: pKi (Protein kinase C alpha type (Mus musculus, UniProt P20444)) of entry Cc1ccc(C(=O)OCC2(CO)C/C(=C/c3ccccc3)C(=O)O2)cc1 (racemic)
Reply | 6.86

Ask | Value wanted: pKi (Protein kinase C alpha type (Mus musculus, UniProt P20444)) of entry CC(C)c1cc(C(C)C)c(C(=O)OCC2(CO)C/C(=C/c3ccc(C(F)(F)F)cc3)C(=O)O2)c(C(C)C)c1 (racemic)
Reply | 7.15

Ask | Value wanted: pKi (Protein kinase C alpha type (Mus musculus, UniProt P20444)) of entry COc1ccc(/C=C2\CC(CO)(COC(=O)c3ccc(N(C)C)cc3)OC2=O)cc1 (racemic; form 2)
Reply | 6.44

Ask | Value wanted: pKi (Protein kinase C alpha type (Mus musculus, UniProt P20444)) of entry CN(C)c1ccccc1C(=O)OCC1(CO)C/C(=C\c2ccccc2[N+](=O)[O-])C(=O)O1 (racemic)
Reply | 6.87

Ask | Value wanted: pKi (Protein kinase C alpha type (Mus musculus, UniProt P20444)) of entry Cc1cc(C)c(C(=O)OCC2(CO)C/C(=C/c3ccc(N(C)C)cc3)C(=O)O2)c(C)c1 (racemic)
Reply | 6.29

Ask | Value wanted: pKi (Protein kinase C alpha type (Mus musculus, UniProt P20444)) of entry CCCCC(/C=C1/CC(CO)(COC(=O)C2CCCCC2)OC1=O)CC (racemic)
Reply | 6.91

Ask | Value wanted: pKi (Protein kinase C alpha type (Mus musculus, UniProt P20444)) of entry CCCC(CCC)C(=O)OCC1(CO)C/C(=C\c2ccc(F)c(Cl)c2)C(=O)O1 (racemic; form 2)
Reply | 8.03

Ask | Value wanted: pKi (Protein kinase C alpha type (Mus musculus, UniProt P20444)) of entry O=C1OC(CO)(COC(=O)C2CCCCC2)C/C1=C/c1ccc(C(F)(F)F)cc1 (racemic)
Reply | 7.50
